tested on: NCI-H510 multicellular tumor spheroid growth, % test/control; experiment: Anticancer human tumor NCI-H510 cell line growth inhibition [Asc]; conditions: curve of first compound; second compound 1 µM;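 note: spheroids exposed to agents for 7 days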
Measured IC50 by item
observed-property: IC50 (nM)

[[record]]
molecule = "COc1c(OCCCN2CCOCC2)ccc2c3n(c(=NC(=O)c4cnc(N)nc4)nc12)CCN3 + Cc1c(S(C)(=O)=O)c(-c2cc(F)cc(N3CCN(c4ccc(NS(=O)(=O)c5ccc(NC(CCN6CCC(C(=O)OCCCP(=O)(O)O)CC6)CSc6ccccc6)c(S(=O)(=O)C(F)(F)F)c5)cc4)CC3)c2)c(-c2ccc(Cl)cc2)n1C(C)C"
observed_property = "IC50"
qualifier_sign = ">"
readout_number = 1000

[[record]]
molecule = "C=C(F)C(=O)N1CCN(c2nc(OCC3CCCN3C)nc3c2CCN(c2cccc4cccc(Cl)c24)C3)CC1CC#N (configuration not stated) + Cc1c(S(C)(=O)=O)c(-c2cc(F)cc(N3CCN(c4ccc(NS(=O)(=O)c5ccc(NC(CCN6CCC(C(=O)OCCCP(=O)(O)O)CC6)CSc6ccccc6)c(S(=O)(=O)C(F)(F)F)c5)cc4)CC3)c2)c(-c2ccc(Cl)cc2)n1C(C)C"
observed_property = "IC50"
qualifier_sign = "="
readout_number = 761


---

tested on: NCI-H510 multicellular tumor spheroid growth, % test/control; assay: Anticancer human tumor NCI-H510 cell line growth inhibition [Asc]; details: second compound 0.0949 µM; first compound 0.01 µM; stronger effect = lower value;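 note: spheroids exposed to agents for 7 days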;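 for viability, T/C: 100% = DMSO vehicle control wells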
rule met if viability, T/C is below 90%. rule not met if not; exact matches included in rule not met.

[[record]]
compound = "CNC(C)C(=O)NC1CN(S(=O)(=O)c2cccc(S(=O)(=O)N3CCC4CCC(C(=O)NC(c5ccccc5)c5ccccc5)N4C(=O)C(NC(=O)C(C)NC)C3)c2)CCC2CCC(C(=O)NC(c3ccccc3)c3ccccc3)N2C1=O (stereo unspecified) + CCN1C(C(=O)NC23CCC(C(=O)O)(CC2)CC3)C(c2cccc(Cl)c2F)C2(C(=O)Nc3cc(Cl)ccc32)C12CCCCC2"
tested_on = "NCI-H510 multicellular tumor spheroid growth, % test/control"
label_value = "rule not met"

[[record]]
compound = "Cn1ncnc1[C@H]1c2n[nH]c(=O)c3cc(F)cc(c23)N[C@@H]1c1ccc(F)cc1 + CCN1C(C(=O)NC23CCC(C(=O)O)(CC2)CC3)C(c2cccc(Cl)c2F)C2(C(=O)Nc3cc(Cl)ccc32)C12CCCCC2"
tested_on = "NCI-H510 multicellular tumor spheroid growth, % test/control"
label_value = "rule met"

[[record]]
compound = "NC1CCC(NC2CC2c2ccccc2)CC1 (stereo unspecified) + CCN1C(C(=O)NC23CCC(C(=O)O)(CC2)CC3)C(c2cccc(Cl)c2F)C2(C(=O)Nc3cc(Cl)ccc32)C12CCCCC2"
tested_on = "NCI-H510 multicellular tumor spheroid growth, % test/control"
label_value = "rule met"

[[record]]
compound = "CCN1CCN(Cc2ccc(Nc3ncc(F)c(-c4cc(F)c5nc(C)n(C(C)C)c5c4)n3)nc2)CC1 + CCN1C(C(=O)NC23CCC(C(=O)O)(CC2)CC3)C(c2cccc(Cl)c2F)C2(C(=O)Nc3cc(Cl)ccc32)C12CCCCC2"
tested_on = "NCI-H510 multicellular tumor spheroid growth, % test/control"
label_value = "rule not met"

[[record]]
compound = "O=C(c1ccc(F)c(F)c1Nc1ccc(I)cc1F)N1CC(O)([C@@H]2CCCCN2)C1 + CCN1C(C(=O)NC23CCC(C(=O)O)(CC2)CC3)C(c2cccc(Cl)c2F)C2(C(=O)Nc3cc(Cl)ccc32)C12CCCCC2"
tested_on = "NCI-H510 multicellular tumor spheroid growth, % test/control"
label_value = "rule not met"

